Reference for the values: the CombiSolv-Exp solvation set (Vermeire and Green 2021)

- assay_procedure: solvent given as SMILES
- assay_context: in O
Record condition met whenever solvation free energy, 298 K is at -4 kcal/mol or higher; record condition not met when lower.

Below are worked cases with known answers.
>>> print(df.to_string())
                                   compound  qualitative_label
0  CCCCCCCCCCCOC(=O)c1ccccc1C(=O)OCCCCCCCCCCC  condition not met
1                COCCCNc1nc(NC(C)C)nc(SC)n1  condition not met

Query compound follows.
Record `CCC1(c2ccccc2)C(=O)NC(=O)NC1=O` ; criterion: solvation free energy, 298 K no lower than -4 kcal/mol. Met?
condition not met
